- Assay overview: MTT cytotoxicity assay, RAFLS
- Assay type: cell-based
- Condition description: human
Measured endpoint: IC50 at 72 h (µM)

| Compound structure string | Recorded result |
| --- | --- |
| COc1cc2c(c(OC)c1OC)-c1ccc(OC)c(=O)cc1[C@@H](NC(C)=O)CC2 | 11.3 |
| CC1=C(O)C(=O)C=C2C1=CC=C1[C@@]2(C)CC[C@@]2(C)[C@@H]3C[C@](C)(C(=O)O)CC[C@]3(C)CC[C@]12C | 1.3 |

====

// values below are reported IC50 at 72 h
- Assay overview: MTT cytotoxicity assay, RAFLS
- Assay type: cell-based
- Condition description: human, RAFLS cells

| Compound | U | IC50 at 72 h |
| --- | --- | --- |
| C[C@@H]1C[C@H]2[C@@H]3CCC4=CC(=O)C=C[C@]4(C)[C@@]3(F)[C@@H](O)C[C@]2(C)[C@@]1(O)C(=O)CO [Dexamethasone, dexamethasone] | µM | 600 |
| C[C@]12C=CC(=O)C=C1CC[C@@H]1[C@@H]2[C@@H](O)C[C@@]2(C)[C@H]1CC[C@]2(O)C(=O)CO [Prednisolone, prednisolone] | µM | 123 |
| CN(Cc1cnc2nc(N)nc(N)c2n1)c1ccc(C(=O)N[C@@H](CCC(=O)O)C(=O)O)cc1 [Methotrexate, methotrexate] | µM | 219 |

Origin of measurements: patent US10688105B2
